system: L1210 leukemia ip in BDF1 mice, survival T/C; assay: NCI In Vivo Anticancer Drug Screen. Data for tumor model L1210 Leukemia (intraperitoneal) in B6D2F1 (BDF1) mice; conditions: endpoint: mean survival time; dose: 100.0 mg/kg/injection; schedule: Q01DX009 (ip); vehicle: saline; higher = longer survival
Toxic doses and inconclusive results are not listed.
Reported values of T/C for individual entries
Attribute measured: T/C

> print(dat)
                                    compound     readout.value
 1                  C/C(=N/N(C)C)c1ccc(C)cc1   91 % of control
 2                      O=S(=O)(O)CCc1ccccn1  109 % of control
 3     CC1CCc2ccccc2N1CCN (stereo not given)   97 % of control
 4                 COC(=O)Cc1cc(OC)c(OC)cc1I   96 % of control
 5  Cc1ccc([N+](=O)[O-])cc1NC(=O)OCCOc1ccccc1   90 % of control
 6  CCOC(=O)C1CCC(=O)NC1=O (stereo not given)  111 % of control
 7                          NC(N)=NCCCC(=O)O   92 % of control
 8         Cc1ccc2c(c1)P(=O)(O)c1cc(F)ccc1O2  112 % of control
 9                  C[N+]12CN3CN(CN(C3)C1)C2  110 % of control
10                            CC(=O)N1CCCCC1  100 % of control
11                            O=C(O)C(F)(F)F  100 % of control
12  COc1cc(C(=O)OC(C)CN2CCN(C(=O)c3cc(OC)c(OC)c(OC)c3)CC2)cc(OC)c1OC (stereo not given)  104 % of control
13                         CC(C)(C#N)NC(N)=O  103 % of control
14  C[CH2][Sn](/[CH]=C/C(C)(C)O)([CH2]C)[CH2]C  102 % of control
15                                   CCNCCNC  101 % of control
16               C=CCC(CC)(C(=O)OCC)C(=O)OCC  107 % of control
17    COC(=O)C1OC1C(=O)OC (stereo not given)  101 % of control
18  O=C(O)C(Cl)Cc1cnc[nH]1 (stereo not given)  100 % of control
19           OCCCC1CCCCN1 (stereo not given)   88 % of control
20           CCOc1ccc(NC(=O)c2cccc(Cl)c2)cc1  109 % of control
21        CC(C)CC(=O)CC(O)(C(F)(F)F)C(F)(F)F  104 % of control
22  ClC1C(Cl)C(Cl)C(Cl)C(Cl)C1Cl (stereo not given)  103 % of control
23             Cc1ccc(S(=O)(=O)Cc2ccccc2)cc1   99 % of control
24                          O=C(O)CSC1=NCCN1   90 % of control
25                     Nc1n[nH]c2cccc(Cl)c12  104 % of control
26             Nc1ccc2c(c1)C(=O)c1ccccc1C2=O   92 % of control
27                              NC(=O)C(N)=O   93 % of control
28                               Cc1cc(N)on1   97 % of control
29  CC(CCC(=O)O)(c1cc(Br)c(O)c(Br)c1)c1cc(Br)c(O)c(Br)c1   93 % of control
30      CC1=C(CC/C(C)=C/CCC(=O)O)C(C)(C)CCC1  100 % of control

* * *

tested on: L1210 leukemia ip in BDF1 mice, survival T/C; assay: NCI In Vivo Anticancer Drug Screen. Data for tumor model L1210 Leukemia (intraperitoneal) in B6D2F1 (BDF1) mice; details: endpoint: mean survival time; dose: 100.0 mg/kg/injection; schedule: Q04DX003 (ip); vehicle: saline; higher = longer survival
Inconclusive results and toxic doses are left out.
Attribute measured: T/C

> print(dat)
                                   compound  attribute.measured     readout.value
1                        C[Si](C)(C)n1ccnc1                 T/C  100 % of control
2                 O=c1[nH]c(=O)n2ncnc2[nH]1                 T/C  100 % of control
3  CCCC1([N+]2(C)CCCC2)CS(=O)C1CC (stereo not drawn)                 T/C   98 % of control
4                        c1nc2c([nH]1)CNCC2                 T/C  100 % of control
5                       N#Cc1cnn(C(N)=S)c1N                 T/C   98 % of control
6  CC(C)CC(N)C(=O)OCc1ccccc1 (stereo not drawn)                 T/C   97 % of control
7                              NC(=O)C(N)=O                 T/C  106 % of control
8  NCCCC1C(CN)C2CC1C1C3CCC(C3)C21 (stereo not drawn)                 T/C   98 % of control

* * *

Reported values of T/C for individual entries
tested on: L1210 leukemia ip in BDF1 mice, survival T/C; assay: NCI In Vivo Anticancer Drug Screen. Data for tumor model L1210 Leukemia (intraperitoneal) in B6D2F1 (BDF1) mice; details: endpoint: mean survival time; dose: 5.0 mg/kg/injection; schedule: Q01DX001 (ip); vehicle: saline; higher = longer survival
Inconclusive results and toxic doses are left out.
Attribute measured: T/C

> print(dat)
                                   compound     readout.value
1       COc1ccccc1CC(C)N (stereo not given)  100 % of control
2  CC1OC(OC2CC(O)C3(CO)C4C(O)CC5(C)C(C6=CC(=O)OC6)CCC5(O)C4CCC3(O)C2)C(O)C(O)C1O (stereo not given)  101 % of control
3                        [Cl][Hg][S]C1CCCC1  106 % of control
4  CCOP(=O)(OCC)Oc1ccc(S(C)=O)cc1 (stereo not given)  114 % of control
5  CN1C=c2c3c(ccc2=C2C=CC4C=C5OCOC5=CC4=C21)OCO3 (stereo not given)   96 % of control

* * *

system: L1210 leukemia ip in BDF1 mice, survival T/C; test: NCI In Vivo Anticancer Drug Screen. Data for tumor model L1210 Leukemia (intraperitoneal) in B6D2F1 (BDF1) mice; conditions: endpoint: mean survival time; dose: 100.0 mg/kg/injection; schedule: Q01DX009 (ip); vehicle: Klucel (hydroxypropylcellulose) (HPC); higher = longer survival
Toxic doses and inconclusive results are not listed.
Attribute measured: T/C

> print(dat)
                                item.smiles  attribute.measured     readout.value
1  Nc1nc(=S)c2[nH]c(N=Nc3ccc(S(=O)(=O)Nc4nccs4)cc3)nc2[nH]1                 T/C   88 % of control
2           O=C(O)Cc1ccc2[nH]c3c(c2c1)CCCC3                 T/C  103 % of control
3               CCCCCCCCCCCCCCCCCCNC(=O)CCl                 T/C   94 % of control
4                         Clc1sc2ccccc2c1Cl                 T/C   95 % of control
5  S=P(c1ccccc1)(N1CCN(c2ccc(Cl)cc2)CC1)N1CCN(c2ccc(Cl)cc2)CC1                 T/C  102 % of control
6              O=[N+]([O-])c1ccc2cn[nH]c2c1                 T/C  112 % of control

* * *

Reported values of T/C for individual entries
test system: L1210 leukemia ip in BDF1 mice, survival T/C; assay: NCI In Vivo Anticancer Drug Screen. Data for tumor model L1210 Leukemia (intraperitoneal) in B6D2F1 (BDF1) mice; conditions: endpoint: mean survival time; dose: 400.0 mg/kg/injection; schedule: Q01DX009 (ip); vehicle: saline with Tween-80; higher = longer survival
Inconclusive results and toxic doses are left out.
Attribute measured: T/C

> print(dat)
                                    compound     readout.value
 1  CCCCCCCCC(O)CCCCCCCCC(=O)O (stereo not given)   86 % of control
 2   COc1ccc(CC(Cc2ccc(OC)c(OC)c2)NC=O)cc1OC  100 % of control
 3                           C#CCNC(=O)NCCCl   97 % of control
 4            CCC(C)(S(=O)(=O)CC)S(=O)(=O)CC  100 % of control
 5                           CC(=O)C(C)(C)Cl  101 % of control
 6               CCOC(=O)NCCc1ccc(OC)c(OC)c1   96 % of control
 7            CC(=O)C1(C)Nc2cccc3cccc(c23)N1   96 % of control
 8        CCN(CC)c1ccc(NC(=O)Nc2ccccc2OC)cc1   95 % of control
 9  CCCC(CCCC(=O)O)C(=O)c1ccccc1 (stereo not given)  100 % of control
10  CC1(C)CC(=O)N/C1=C\C1NC(=O)CC1(C)C (stereo not given)  102 % of control
